Molecular target: T1, human GITR (human, UniProt Q9Y5U5 26-241)
T1 sequence: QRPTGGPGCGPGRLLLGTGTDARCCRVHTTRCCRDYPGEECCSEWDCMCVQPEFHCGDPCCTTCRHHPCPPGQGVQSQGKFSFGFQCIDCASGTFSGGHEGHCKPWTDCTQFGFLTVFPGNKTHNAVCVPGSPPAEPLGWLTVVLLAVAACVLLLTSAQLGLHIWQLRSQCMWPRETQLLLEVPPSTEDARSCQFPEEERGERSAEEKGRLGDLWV
Assay: cell-based or functional assay
Quick reference: Proliferation EC50 of the listed items.

{"BINDER": "5H7v22 (antibody, human IgG1, kappa, V domains shown, Engineered variant; also called Ab38; SS-16932) VH: QVQLQESGPGLVKPSETLSLTCTVSGGSISSGGYFWSWIRQPPGKGLEWIGYIYYSGTTYYNPSLKSRVTISIDTSKNQFSLKLSSVTAADTAVYYCARDLFYYDTSGPRGFEPWGQGTLVTVSS VL: EIVLTQSPGTLSLSPGERATLSCRASQTVSSNYLAWYQQKPGQAPRLLIYGSSTRATGIPDRFSGSGSGTDFTLTISRLEPEDFAVYYCQQYESSPWTFGQGTKVEIKR", "Proliferation EC50 / mg/L": 0.027}
{"BINDER": "41G5v5 (antibody, human IgG1, kappa, V domains shown, Engineered variant; also called Ab59; SS-16955) VH: QVQLVESGGGVVQPGRSLRLSCAASGFTFSSYGMHWVRQAPGKGLEWVAVIWYPGSNKYYADTVKGRFTISRDNSKNTLYLQMNSLRAEDTAVYYCARGGELGRYYYYGMDVWGQGTTVTVSS VL: DIQMTQSPSSLSASVGDRVTVTCRASQGIRNDLGWYQQKPGKAPKLLIYAASSLQSGVPSRFSGSGSGTEFTLTISSLQPEDFATYYCLQHNNYPWTFGQGTKVDIKR", "Proliferation EC50 / mg/L": 0.012}
{"BINDER": "5H7v2 (antibody, human IgG1, kappa, V domains shown, Engineered variant; also called Ab26; SS-13807) VH: QVQLQESGPGLVKPSETLSLTCTVSGGSISSGGYFWSWIRQPPGKGLEWIGYIYYSGTTYYNPSLKSRVTISIDTSKNQFSLKLSSVTAADTAVYYCARDLFYYDTSGPRGFDPWGQGTLVTVSS VL: EIVLTQSPGTLSLSPGERATLSCRASQTVSSNYLAWYQQKPGQAPRLLIYGSSTRATGIPDRFSGSGSGTDFTLTISRLEPEDFAVYYCQQYDSSPWTFGQGTKVEIKR", "Proliferation EC50 / mg/L": 0.011}
